# EXPERIMENT_NOTES: Trypanosoma cruzi growth suppression in host cells – NIH3T3 host cells, beta-gal luminescence, confirmation (AID 2044);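 note: intracellular parasites grown in NIH/3T3 mouse fibroblasts as host cells; luminescent beta-galactosidase reporter signal from transgenic T. cruzi replicating inside host cells; inhibitors lower the luminescence signal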
# Format: functional, cell-based
Calls of active or inactive are those of the source.
MEASUREMENT_TYPE: EC50

- O=C(NCCCN1CCCC1=O)c1ccc([N+](=O)[O-])s1: 534 nM (active)
- CCOC(=O)/C(=C\c1ccccc1)C(=O)c1cc(C(C)=O)c(Nc2ccccc2)s1: 2350 nM (active)
- CCOC(=O)C1=C(C)N=C2c3ccccc3C(=O)C2C1c1ccc(Cl)cc1 (stereo not drawn): 2060 nM (active)
- Oc1ccc(CN2CCc3ccccc3C2)c2cccnc12: 529 nM (active)
- Cc1ccc(C(=O)O/N=C/c2c(N3CCOCC3)n(C)c3ccccc23)cc1: 799 nM (active)
- O=c1c2ccccc2[nH]c(=S)n1CCCN1CCC(Cc2ccccc2)CC1: 161 nM (active)
- O=C(COc1ccc(Br)cc1Cl)NC1CCN(Cc2ccccc2)CC1: 165 nM (active)
- Cc1cccc(S(=O)(=O)c2c(N)n(/N=C/c3ccco3)c3nc4ccccc4nc23)c1: 2120 nM (active)

Let us move to another entry and its EC50.
Given the compound c1ccc(Nc2cccc3c(Nc4ccccc4)cccc23)cc1 , what is its reported EC50?
1140 nM (active)

---

# SUBJECT_OF_TEST: Rac GTPase-activating protein 1 (Homo sapiens, UniProt Q9H0H5)
# Sequence (Q9H0H5 whole entry): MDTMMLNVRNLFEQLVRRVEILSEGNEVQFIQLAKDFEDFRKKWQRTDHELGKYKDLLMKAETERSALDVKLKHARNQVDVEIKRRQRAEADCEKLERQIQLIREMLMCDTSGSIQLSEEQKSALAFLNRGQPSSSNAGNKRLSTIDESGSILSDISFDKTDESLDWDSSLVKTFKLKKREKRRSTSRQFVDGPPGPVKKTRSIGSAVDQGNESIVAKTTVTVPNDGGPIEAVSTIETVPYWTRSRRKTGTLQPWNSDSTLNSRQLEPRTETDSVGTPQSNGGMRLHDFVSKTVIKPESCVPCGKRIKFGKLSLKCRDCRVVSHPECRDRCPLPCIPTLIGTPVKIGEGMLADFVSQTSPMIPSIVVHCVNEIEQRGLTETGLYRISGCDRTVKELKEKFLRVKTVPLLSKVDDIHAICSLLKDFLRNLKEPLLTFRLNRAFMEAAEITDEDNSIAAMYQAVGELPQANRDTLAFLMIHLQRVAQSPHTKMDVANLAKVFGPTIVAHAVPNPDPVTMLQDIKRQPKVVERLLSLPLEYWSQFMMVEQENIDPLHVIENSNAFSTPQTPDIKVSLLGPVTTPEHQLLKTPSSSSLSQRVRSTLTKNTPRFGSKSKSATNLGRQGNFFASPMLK
# EXPERIMENT_NOTES: blockers of MgcRacGAP-driven Rac1 GTP hydrolysis – biochemical, ADP Hunter fluorescence, primary and confirmatory, confirmation (AID 624330)
# Format: functional
Calls of active or inactive are those of the source.
IC50 by entry:

- Nc1ccc(N(c2ccccc2)c2ccc(N)cc2)cc1: 8.57 µM (active)
- CCOc1cc(N2CCOCC2)c(OCC)cc1NC(=O)c1ccc(C)s1: 70.8 µM (active)
- CCOc1cc(/C=N/Nc2ncc(C)c(O)n2)ccc1O: 32.1 µM (active)
- Oc1cccc(Nc2ccccc2)c1: 62.6 µM (active)
- CCN(CC)c1ccc(NC(=O)COc2ccc(-n3cnnn3)cc2)cc1: 63 µM (active)

Could you tell me which IC50 is on file for CSc1nc(/C=C2\C=Nc3ccccc32)c(O)[nH]1 ?
35.9 µM (active)

If you can, please state the reported IC50 value of Cc1cc(Cl)cc2sc(S)nc12 .
85.4 µM (active)

Look at this compound and give its reported IC50. O=[N+]([O-])c1cccc(S(=O)(=O)N/N=C/c2ccc(O)cc2)c1
49.5 µM (active)

Entry CN(C)c1ccc(/C=C2/C(=N\O)C3CCN2CC3)cc1 has what IC50?
75.5 µM (active)

# query: IC50 of entry COC(=O)c1ccc(C(=O)OCCCc2nc3cc(N)ccc3[nH]2)cc1
110 µM (active)

Request the reported IC50 associated with COC(=O)c1[nH]c2ccc(Cl)cc2c1NC(=O)Oc1ccccc1
19.8 µM (active)

---

# maps each entry to its IC50
# SUBJECT_OF_TEST: Nonstructural protein 1 (Influenza A virus)
# Sequence (Q194T2 whole entry): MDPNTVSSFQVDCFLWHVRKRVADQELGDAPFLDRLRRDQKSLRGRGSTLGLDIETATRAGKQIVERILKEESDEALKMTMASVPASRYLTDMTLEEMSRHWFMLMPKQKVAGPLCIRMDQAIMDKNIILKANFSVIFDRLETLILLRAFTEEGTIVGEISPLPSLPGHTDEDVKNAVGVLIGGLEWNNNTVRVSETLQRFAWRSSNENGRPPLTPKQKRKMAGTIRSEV
# Type: functional, Influenza A virus (A/California/07/2009(H1N1))
Active and inactive are the calls of the source.

Answered cases to consult:
- Oc1ccc(CN2CCc3ccccc3C2)c2cccnc12: 5.76 µM (active)
- O=C(NN=Cc1c(O)ccc2ccccc12)c1ccc[n+](CCO)c1: 3.07 µM (active)
- O=C(NC(=S)NNC(=O)c1ccccc1O)c1ccc(F)cc1: 12.2 µM (active)

Attention now shifts to the item below.
Any idea what IC50 came out for OCc1ccc(O)c2ncccc12 on Nonstructural protein 1 (Influenza A virus)?
10.5 µM (active)

---

# SUBJECT_OF_TEST: UniProtKB P33261
# Sequence (P33261 whole entry): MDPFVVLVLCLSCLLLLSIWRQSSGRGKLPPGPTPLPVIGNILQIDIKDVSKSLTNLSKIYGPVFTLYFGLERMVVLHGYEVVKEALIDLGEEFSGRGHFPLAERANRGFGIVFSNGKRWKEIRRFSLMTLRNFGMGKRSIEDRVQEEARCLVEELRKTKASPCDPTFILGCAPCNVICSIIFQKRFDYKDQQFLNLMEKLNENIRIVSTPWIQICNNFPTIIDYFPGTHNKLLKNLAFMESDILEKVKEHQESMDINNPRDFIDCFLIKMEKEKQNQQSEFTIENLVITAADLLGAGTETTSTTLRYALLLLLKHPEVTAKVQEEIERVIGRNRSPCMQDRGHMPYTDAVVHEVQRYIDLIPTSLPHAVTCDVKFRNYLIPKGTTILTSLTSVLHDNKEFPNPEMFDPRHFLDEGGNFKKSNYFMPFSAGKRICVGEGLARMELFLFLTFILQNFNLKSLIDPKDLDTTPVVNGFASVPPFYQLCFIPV
# EXPERIMENT_NOTES: Cytochrome panel assay with activity outcomes. Panel member name: p450-cyp2c19 Compounds with AC50 equal or less than 10 uM are considered active
# Assay type: functional
# SETUP_CONDITIONS: read-out: AC50
// AC50 lookup, one value per entry

Before answering, review these 5 worked examples.
• CN(C(=O)COc1cccc(Br)c1)C1CCS(=O)(=O)C1 (stereo not drawn) = 22.4 µM (inconclusive)
• CC(C)NC(=O)N1CCN(c2ccncc2S(=O)(=O)N2CCOCC2)CC1 = 39.8 µM (inconclusive)
• CCCCCCC[n+]1ccc(-c2cc[n+](CCCCCCC)cc2)cc1 = 10 µM (inconclusive)
• O=C(NCc1ccco1)c1cc(C(=O)C2CCCCC2)c[nH]1 = 14.1 µM (inconclusive)
• COc1ccc(S(=O)(=O)N2CCC(N3CCCCC3)CC2)cc1 = 39.8 µM (inconclusive)

For O=[N+]([O-])c1ccc(N2CCNCC2)cc1NCC1CCCO1 (stereo not drawn) , what is its reported AC50?
39.8 µM (inconclusive)

Please report the recorded AC50 for CC(=O)NCCNc1nc(-c2ccc3c(c2)OCO3)nc2ccccc12 .
39.8 µM (inconclusive)

I would be grateful if you could share the reported AC50 for CCC(CC)C(=O)c1c[nH]c(C(=O)NCCc2ccccn2)c1 .
20 µM (inconclusive)

---

# SUBJECT_OF_TEST: UniProtKB P9WHJ3
# EXPERIMENT_NOTES: Fluorescence Cell-Free Homogeneous Dose Retest to Identify Inhibitors of RecA-Intein Splicing Activity. [Related pubchem assays (depositor defined):AID2097, AID2223, AID489010, AID492950]
# Type: functional
Calls of active or inactive are those of the source.
Consider the following compounds and their measured EC50 readings.

The cases that follow already have their EC50 on record.
• O=C1c2ccccc2C(=O)c2cc(S(=O)(=O)Nc3ccccc3)ccc21 = 12.1 µM (active)
• Cc1ccc(/C=C2\SC(N3CCN(C(c4ccccc4)c4ccccc4)CC3)=NC2=O)o1 = 49.1 µM (active)
• COc1ccccc1C1C(C#N)=C(N)Oc2c1c(-c1ccccc1)nn2-c1ccccc1 (stereo not drawn) = 4.49 µM (active)
• Cc1ccc(-c2[nH]nc3c2C(c2cccnc2)C(C#N)=C(N)O3)cc1 (stereo not drawn) = 1.3 µM (active)
• O=C(Oc1cccc(-n2cnnn2)c1)c1ccco1 = 15.1 µM (active)
• COc1ccccc1CN1CCSCC1 = 5.08 µM (active)

Please report the recorded EC50 for Fc1ccc(Nc2nc(Oc3ccccc3F)nc(N3CCCC3)n2)cc1 .
0.946 µM (active)

EC50 lookup needed for Cc1nc2ccccc2nc1N/N=C/c1ccc(O)cc1O , thanks.
> 380 µM (inconclusive)

Quick one: EC50 for COc1ccc(OC)c(C2C(C#N)=C(N)Oc3c2c(C)nn3-c2ccc(C)cc2)c1 (stereo not drawn) ?
4.91 µM (active)

Consider the compound CCOC(=O)c1c(NC(=S)N2CCCCC2)sc2c1CCN(C(=O)OCC)C2 and give its measured EC50.
12.7 µM (active)

---

# SUBJECT_OF_TEST: Cytochrome P450 2C9 (Homo sapiens)
MEASUREMENT_TYPE: AC50

- O=C(CSc1ccccc1)Nc1ccc(NC(=O)c2ccco2)cc1: 20 µM (inconclusive)
- COc1ccc2[nH]cc(CCNc3ccnc(-c4c(C)noc4C)n3)c2c1: 0.794 µM (inconclusive)
- Cc1ccc(OCC(=O)NNC(=O)C2CCN(c3ncccn3)CC2)cc1: 14.1 µM (inconclusive)

Reported AC50, compound Cc1cccc(CNc2ccnc(-c3ccccc3Cl)n2)c1 : ____
0.794 µM (inconclusive)

Given the entry C/C(CCN1CCc2nc(-c3ccccc3)c(-c3ccccc3)cc2C1)=N\O[C@@H](C)c1cc(-c2c(C)cc(C)cc2C)no1 , report its measured AC50.
0.316 µM (inconclusive)

What does the data say about its AC50? Entry: CCC(CC)C(=O)c1c[nH]c(C(=O)NCCc2ccccn2)c1
39.8 µM (inconclusive)

Returns the measured AC50 for the input compound. Input: Cn1c(=O)[nH]c(=O)c2c1nc(NCCCO)n2CCCc1ccccc1
12.6 µM (inconclusive)

Name the reported AC50 value associated with the compound COc1cc2c(cc1NC(=O)c1cc(-c3cccnc3)nc3ccc(C)cc13)oc1ccccc12
2.51 µM (inconclusive)

Item under review: O=C(NCc1ccco1)c1cc(C(=O)C2CCCCC2)c[nH]1 . Reported AC50?
8.91 µM (inconclusive)

Can you share its AC50? I mean this compound: CN(C)S(=O)(=O)c1ccc(C(=O)Nc2ccc(CN3CCCC3)cc2)cc1
1.78 µM (inconclusive)

The origin of these recorded values is ChEMBL document CHEMBL1201862.
